experiment: HA binding assay (pulldown of fluorescein-labeled peptides, Langmuir isotherm fit); settings: in words
endpoint_label: effect of sequence variation on binding affinity (KA) relative to DSS peptide of same size

[
  {
    "substance": "ETT ETT ETT ETT (ETTETTETTETT; synthetic calcium-binding peptide 4ETT)",
    "endpoint_value": "little observable effect"
  },
  {
    "substance": "DTT DTT DTT DTT (DTTDTTDTTDTT; synthetic calcium-binding peptide 4DTT)",
    "endpoint_value": "little observable effect"
  }
]

====

KA (binding affinity for HA) values by entry
experiment: HA binding assay (pulldown of fluorescein-labeled peptides, Langmuir isotherm fit); details: fit of Langmuir equation; fluorescein-labeled peptide 0-100 μM, 0.3 mg HA nanocrystals
endpoint_label: KA (binding affinity for HA)

[
  {
    "substance": "DAA DAA DAA DAA DAA DAA DAA DAA (DAADAADAADAADAADAADAADAA; synthetic calcium-binding peptide 8DAA)",
    "endpoint_value": "310,000 ± 74,000 M^−1"
  },
  {
    "substance": "ESS ESS ESS ESS (ESSESSESSESS; synthetic calcium-binding peptide 4ESS)",
    "endpoint_value": "81,000 ± 18,000 M^−1"
  },
  {
    "substance": "DSS DSS DSS DSS DSS DSS (DSSDSSDSSDSSDSSDSS; synthetic calcium-binding peptide 6DSS)",
    "endpoint_value": "272,000 ± 26,000 M^−1"
  },
  {
    "substance": "NTT NTT NTT NTT (NTTNTTNTTNTT; synthetic calcium-binding peptide 4NTT)",
    "endpoint_value": "17,000 ± 7,000 M^−1"
  },
  {
    "substance": "DTT DTT DTT DTT (DTTDTTDTTDTT; synthetic calcium-binding peptide 4DTT)",
    "endpoint_value": "161,000 ± 79,000 M^−1"
  },
  {
    "substance": "ETT ETT ETT ETT (ETTETTETTETT; synthetic calcium-binding peptide 4ETT)",
    "endpoint_value": "79,000 ± 25,000 M^−1"
  },
  {
    "substance": "DSS DSS DSS DSS (DSSDSSDSSDSS; synthetic calcium-binding peptide 4DSS)",
    "endpoint_value": "94,000 ± 26,000 M^−1"
  },
  {
    "substance": "DSS DSS (DSSDSS; synthetic calcium-binding peptide 2DSS)",
    "endpoint_value": "57,000 ± 24,000 M^−1"
  }
]

The values you see were collected from patent US8889156B2.
